assay: NCI Yeast Anticancer Drug Screen. Data for the mlh1 rad18 strain (AID 175)
test_conditions: S. cerevisiae mlh1 rad18 strain growth inhibition; at 50.0 µM; stronger effect = higher value
This is part of a sample that, as a whole, favours compounds with a hit. Of some 79,000 tested, about 15% had one in any assay.
Use 90% as the dividing line for growth inhibition, with the line itself on the Yes side and lower values as No.

INSERT INTO measurements (compound, discrete_label) VALUES
  ('COc1ccc(CCNC(=S)/N=C\C(C(=O)c2ccccc2)=C(\O)c2ccccc2)cc1OC', 'Yes'),
  ('CC(C)COC(=O)C1C2C=CC(CC2)C1C(=O)OCC(C)C (stereo unspecified)', 'No'),
  ('CN1CCN=C1c1ccc(NC(=O)Nc2ccc(NC(=O)Nc3ccc(C4=NCCN4C)cc3)cc2)cc1', 'Yes'),
  ('C1=C(c2ccccc2)OC(c2ccccc2)=C[P+]1(c1ccccc1)c1ccccc1', 'Yes'),
  ('Cc1ccccc1N1C(=O)C(=O)c2cccc(C)c21', 'No'),
  ('O=C(Nc1ccccc1)c1cccc2ccccc12', 'No'),
  ('CCc1ccccc1SC(C)=O', 'No'),
  ('C=CS(=O)(=O)c1ccc(Cl)cc1', 'Yes'),
  ('CCc1nc(N)nc(N)c1-c1ccc(N(C)Cc2ccccc2)c([N+](=O)[O-])c1', 'No'),
  ('S=c1[nH]nc(SCc2ccc(Cl)c(Cl)c2)c2[nH]cnc12', 'No'),
  ('COc1ccc(C2CN(C(=O)c3ccccc3)N=C(c3ccccc3)O2)cc1 (stereo unspecified)', 'Yes'),
  ('Cc1c2ccccc2cc2c1ccc1cccc(F)c12', 'No'),
  ('Cc1ccc(NC2=CC(=O)C(NO)c3ccccc32)cc1 (stereo unspecified)', 'No'),
  ('CCOP(=O)(CCC(=O)[C@@]1(O)CC[C@H]2[C@@H]3CCC4=CC(=O)CC[C@]4(C)[C@H]3CC[C@@]21C)OCC', 'No'),
  ('COc1ccc(C2=C(Cl)C(=O)N(c3ccc(C)cc3)C(=O)C2(Cl)Cl)cc1', 'Yes'),
  ('CC(C)c1ccc(N2C(=O)C=CC2=O)cc1', 'Yes'),
  ('c1ccc(CSc2nnc(SCc3ccccc3)c3[nH]cnc23)cc1', 'No'),
  ('C/C=C\C(/C=C/C)(C(=O)OCCN(C)C)C(/C=C\C)(/C=C/C)C(=O)OCCN(C)C (stereo unspecified)', 'Yes');
